Where do these numbers come from? They come from patent US12378224B2.

Record set of IC50 for target or system human c-MER catalytic domain (Homo sapiens (Human)).
Observed property: IC50

{"columns": ["Structure as smiles", "Observed property", "Result"],
 "data": [
  ["CN1CCN(Cc2ccc(-c3cc(CN4CC[C@@H](NC(=O)c5cc(-c6cnn(C)c6)cnc5N)C4)ccc3F)cc2)CC1", "IC50", "100 to 1000 nM"],
  ["Cn1cc(-c2cnc(N)c(C(=O)N[C@@H]3CCN(C(=O)Oc4cccc(-c5ccc(CNCC(=O)O)cc5)c4)C3)c2)cn1", "IC50", "100 to 1000 nM"],
  ["CN1CCN(c2cc(-c3cnc(N)c(C(=O)N[C@@H]4CCN(C(=O)c5ccc(-c6ccc(F)cc6Cl)cc5)C4)c3)ccn2)CC1", "IC50", "< 10 nM"]
]}

----------
Record set of IC50 for target or system human c-MER catalytic domain (Homo sapiens (Human), UniProt Q12866).
Observed property: IC50

{"columns": ["Structure as smiles", "Observed property", "Result"],
 "data": [
  ["CN(C)CCCOc1ccc2cc(OC(=O)N3CC[C@@H](NC(=O)c4cc(-c5cnn(C)c5)cnc4N)C3)ccc2c1", "IC50", "100 to 1000 nM"],
  ["COC(=O)[C@H]1C[C@@H](NC(=O)c2cc(-c3cnn(C)c3)cnc2N)CN1C(=O)c1ccc(-c2ccc(F)cc2Cl)cc1", "IC50", "> 1000 nM"],
  ["Cn1cc(-c2cnc(N)c(C(=O)N[C@@H]3CCN(C(=O)c4ccc(CCBr)cc4)C3)c2)cn1", "IC50", "> 1000 nM"],
  ["Cn1cc(-c2cnc(N)c(C(=O)N[C@@H]3CCN(Cc4cccc(Oc5ccccc5)c4)C3)c2)cn1", "IC50", "> 1000 nM"],
  ["CN(C)CCOc1ccc2cc(OC(=O)N3CC[C@@H](NC(=O)c4cc(-c5cnn(C)c5)cnc4N)C3)ccc2c1", "IC50", "100 to 1000 nM"],
  ["Cn1cc(-c2cnc(N)c(C(=O)N[C@@H]3CCN(C(=O)Oc4cccc(-c5ccc(CN6CCCC6)cc5)c4)C3)c2)cn1", "IC50", "10 to 100 nM"],
  ["Cn1cc(-c2cnc(N)c(C(=O)N[C@@H]3CCN(C(=O)Oc4cccc(-c5ccc(CN6CCC[C@H](N)C6)cc5)c4)C3)c2)cn1", "IC50", "10 to 100 nM"]
]}

----------
Target: BCR fusion to kinase domain of MerTK (Ba/F3-MerTK) (Homo sapiens)
Sequence (Q12866 21-999 limits assumed, change not shown): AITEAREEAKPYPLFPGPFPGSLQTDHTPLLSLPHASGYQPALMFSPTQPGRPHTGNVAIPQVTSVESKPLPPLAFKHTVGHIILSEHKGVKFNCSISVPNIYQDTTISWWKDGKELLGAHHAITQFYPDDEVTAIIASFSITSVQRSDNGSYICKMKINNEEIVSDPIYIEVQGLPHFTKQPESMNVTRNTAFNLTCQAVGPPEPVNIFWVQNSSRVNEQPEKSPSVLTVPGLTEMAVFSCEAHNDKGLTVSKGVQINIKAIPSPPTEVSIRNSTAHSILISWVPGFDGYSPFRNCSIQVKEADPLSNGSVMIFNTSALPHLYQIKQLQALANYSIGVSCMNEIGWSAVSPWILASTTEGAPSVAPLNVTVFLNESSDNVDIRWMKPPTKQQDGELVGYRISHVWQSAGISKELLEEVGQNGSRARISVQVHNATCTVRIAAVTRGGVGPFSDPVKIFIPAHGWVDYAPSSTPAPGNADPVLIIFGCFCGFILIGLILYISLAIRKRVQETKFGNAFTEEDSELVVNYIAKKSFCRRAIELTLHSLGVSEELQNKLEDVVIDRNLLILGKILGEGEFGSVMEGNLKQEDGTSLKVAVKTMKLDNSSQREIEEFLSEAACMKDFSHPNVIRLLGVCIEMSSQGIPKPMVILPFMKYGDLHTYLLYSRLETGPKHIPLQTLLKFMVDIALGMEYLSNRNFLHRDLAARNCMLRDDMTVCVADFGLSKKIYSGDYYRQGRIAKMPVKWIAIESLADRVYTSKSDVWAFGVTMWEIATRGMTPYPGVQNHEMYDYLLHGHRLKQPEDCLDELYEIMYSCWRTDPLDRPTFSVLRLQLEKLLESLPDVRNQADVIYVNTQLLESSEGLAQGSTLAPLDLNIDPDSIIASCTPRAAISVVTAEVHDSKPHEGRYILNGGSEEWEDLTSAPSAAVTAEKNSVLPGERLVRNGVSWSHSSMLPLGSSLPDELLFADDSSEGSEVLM
Assay: In Cell TAM Kinase Assay Using BaF3 Cellular System
Format: cell-based, murine
Conditions: Ba/F3 BCR-kinase fusion proliferation, 72 hours, Cell Titer Glo; kinase not given; read-out: IC50
Each record here notes measured IC50.

{"columns": ["Structure as smiles", "Measurement target", "IC50"],
 "data": [
  ["CN(c1ccc2cc(C(=O)N3CC[C@@H](NC(=O)c4cc(-c5cnn(C)c5)cnc4N)C3)ccc2c1)C1CCN(CCO)CC1", "BCR fusion to kinase domain of MerTK (Ba/F3-MerTK) (Homo sapiens)", "100 to 500 nM"],
  ["CN(c1ccc(-c2ccc(C(=O)N3CC[C@@H](NC(=O)c4cc(-c5cnn(C)c5)cnc4N)C3)cc2)cc1)c1ccc([N+](=O)[O-])cc1", "BCR fusion to kinase domain of MerTK (Ba/F3-MerTK) (Homo sapiens)", "> 1000 nM"],
  ["Cn1cc(-c2cnc(N)c(C(=O)N[C@@H]3CCN(C(=O)c4ccc(-c5ccc(Oc6ccc(O)cc6)c(Cl)c5)cc4)C3)c2)cn1", "BCR fusion to kinase domain of MerTK (Ba/F3-MerTK) (Homo sapiens)", "100 to 500 nM"]
]}
